Substrate: Nc1ncnc2c1ncn2[C@@H]1O[C@H](COP(=O)(O)O)[C@@H](OP(=O)(O)O)[C@H]1O
Test: HPLC of AMP product, initial rates, double reciprocal plot
Format: biochemical, Pyrococcus yayanosii
Settings: 20 mM Tris-HCl pH 8.0, 50 mM NaCl, 1.0 mM MnCl2, 1.0 mM DTT, 100 µg/mL BSA, 70 °C
Measured Km of individual entries

{"protein": "PyapApase (Pyrococcus yayanosii CH1; G285D) (protein) MLALIIHHWDTDGITTAALLVRALELGDFKNMTPPIGEFRFDGKIWAAIERADKLYVLDLNLPQEVEKVPVETLFIDHHIQPRIKNPRVRQVNPALEGKHYPSASLVVSEHFGIFNAWSALGAVGDIGEKAFELSRVEELLKGEGLSREDALKLVELIDSNYIVMDRMAVEEALHVLLNYELRELLEYEPWIRRVEAIKEAVEEVMSSVEERNGFAIVDFESPFNIISKVARKLVWEKGYRGAVVVNRNFHGKAQVYFRVSPKEAERISVLTIIGKLRGLGVNADGKREVIGCICERGKLDEVLSVIDAYLG", "scaleUnit": "mM", "Km": 4.5}
{"protein": "PyapApase (Pyrococcus yayanosii CH1; K287A) (protein) MLALIIHHWDTDGITTAALLVRALELGDFKNMTPPIGEFRFDGKIWAAIERADKLYVLDLNLPQEVEKVPVETLFIDHHIQPRIKNPRVRQVNPALEGKHYPSASLVVSEHFGIFNAWSALGAVGDIGEKAFELSRVEELLKGEGLSREDALKLVELIDSNYIVMDRMAVEEALHVLLNYELRELLEYEPWIRRVEAIKEAVEEVMSSVEERNGFAIVDFESPFNIISKVARKLVWEKGYRGAVVVNRNFHGKAQVYFRVSPKEAERISVLTIIGKLRGLGVNAGGAREVIGCICERGKLDEVLSVIDAYLG", "scaleUnit": "mM", "Km": 0.72}
{"protein": "PyapApase (Pyrococcus yayanosii CH1; R259A) (protein) MLALIIHHWDTDGITTAALLVRALELGDFKNMTPPIGEFRFDGKIWAAIERADKLYVLDLNLPQEVEKVPVETLFIDHHIQPRIKNPRVRQVNPALEGKHYPSASLVVSEHFGIFNAWSALGAVGDIGEKAFELSRVEELLKGEGLSREDALKLVELIDSNYIVMDRMAVEEALHVLLNYELRELLEYEPWIRRVEAIKEAVEEVMSSVEERNGFAIVDFESPFNIISKVARKLVWEKGYRGAVVVNRNFHGKAQVYFAVSPKEAERISVLTIIGKLRGLGVNAGGKREVIGCICERGKLDEVLSVIDAYLG", "scaleUnit": "mM", "Km": 6}
